# Tested on: Staphylococcus aureus
# measurementProtocol: Antibacterial activity against methicillin resistant Staphylococcus aureus ATCC49008 assessed as reduction in microbial growth after 16 to 18 hrs by microbroth dilution method
# Format: functional
# condition: time 16-18 hrs
readoutLabel: MIC (µg/mL)
Numbers only; they are read as µg/mL.

Q: For the molecule CC(C)=CCc1c(OCCF)cc(/C=C/c2ccc(C(F)(F)F)cc2)c(C(=O)O)c1O , give its reported MIC.
Result: 8

Q: For the molecule CCC(CC)Oc1cc(/C=C/c2ccc(F)cc2)c(C(=O)O)c(O)c1CC=C(C)C , give its reported MIC.
Result: 2

Q: For the molecule CC(C)=CCc1c(OCC2CC2)cc(/C=C/c2ccc(F)cc2)c(C(=O)O)c1O , give its reported MIC.
Result: 2

----------
# System: Staphylococcus aureus
# measurementProtocol: Antibacterial activity against methicillin resistant Staphylococcus aureus ATCC513045 assessed as reduction in microbial growth after 16 to 18 hrs by microbroth dilution method
# Format: functional
# condition: time 16-18 hrs
Kindly state MIC for each of the entries shown.
Numbers only; they are read as µg/mL.

Q: For the compound CCCC(CC)Oc1cc(/C=C/c2ccc(F)cc2)c(C(=O)O)c(O)c1CC=C(C)C (centres undefined) , give its reported MIC.
Result: 2

Q: For the compound CC(C)=CCc1c(OCCF)cc(/C=C/c2ccc(F)cc2)c(C(=O)O)c1O , give its reported MIC.
Result: 4

Q: For the compound CC(C)=CCc1c(OCCF)cc(/C=C/c2ccc(C(F)(F)F)cc2)c(C(=O)O)c1O , give its reported MIC.
Result: 4

Q: For the compound CC(C)=CCc1c(OC2CCC2)cc(/C=C/c2ccc(C(F)(F)F)cc2)c(C(=O)O)c1O , give its reported MIC.
Result: 1

Q: For the compound CC(C)=CCc1c(OC(C)C)cc(/C=C/c2ccc(F)cc2)c(C(=O)O)c1O , give its reported MIC.
Result: 8

Q: For the compound CC(C)=CCc1c(OC2CCOCC2)cc(/C=C/c2ccc(F)cc2)c(C(=O)O)c1O , give its reported MIC.
Result: 16

Q: For the compound CCCC(CC)Oc1cc(/C=C/c2ccc(C(F)(F)F)cc2)c(C(=O)O)c(O)c1CC=C(C)C (centres undefined) , give its reported MIC.
Result: 2

Q: For the compound CC(C)=CCc1c(OC2CCCCC2)cc(/C=C/c2ccc(F)cc2)c(C(=O)O)c1O , give its reported MIC.
Result: 2

Q: For the compound CC(C)=CCc1c(OC2CCC2)cc(/C=C/c2ccc(F)cc2)c(C(=O)O)c1O , give its reported MIC.
Result: 2

Q: For the compound CC(C)=CCc1c(OCCCCF)cc(/C=C/c2ccc(F)cc2)c(C(=O)O)c1O , give its reported MIC.
Result: 4

Q: For the compound CCC(CC)Oc1cc(/C=C/c2ccc(F)cc2)c(C(=O)O)c(O)c1CC=C(C)C , give its reported MIC.
Result: 2

Q: For the compound CC(C)=CCc1c(OCCCC(F)(F)F)cc(/C=C/c2ccc(C(F)(F)F)cc2)c(C(=O)O)c1O , give its reported MIC.
Result: 2

Q: For the compound CCC(C)Oc1cc(/C=C/c2ccc(F)cc2)c(C(=O)O)c(O)c1CC=C(C)C (centres undefined) , give its reported MIC.
Result: 2

Q: For the compound CC(C)=CCc1c(OCC(F)F)cc(/C=C/c2ccc(C(F)(F)F)cc2)c(C(=O)O)c1O , give its reported MIC.
Result: 2

Q: For the compound CCn1cc(C(=O)O)c(=O)c2cc(F)c(N3CCNCC3)cc21 , give its reported MIC.
Result: 32

Q: For the compound CC(C)=CCc1c(OCC2CC2)cc(/C=C/c2ccc(C(F)(F)F)cc2)c(C(=O)O)c1O , give its reported MIC.
Result: 2

Q: For the compound CC(C)=CCc1c(OCC2CC2)cc(/C=C/c2ccc(F)cc2)c(C(=O)O)c1O , give its reported MIC.
Result: 2

Q: For the compound CC(C)=CCc1c(OCC(F)F)cc(/C=C/c2ccc(F)cc2)c(C(=O)O)c1O , give its reported MIC.
Result: 4

----------
# System: Staphylococcus aureus
# measurementProtocol: Antibacterial activity against methicillin resistant Staphylococcus aureus ATCC49025 assessed as reduction in microbial growth after 16 to 18 hrs by microbroth dilution method
# Assay type: functional
# condition: time 16-18 hrs
Kindly state MIC for each of the entries shown.
A bare number is not enough; add the unit after it.

Q: For the compound CCC(C)Oc1cc(/C=C/c2ccc(C(F)(F)F)cc2)c(C(=O)O)c(O)c1CC=C(C)C (centres undefined) , give its reported MIC.
Result: 2 µg/mL

Q: For the compound CC(C)=CCc1c(OCCCF)cc(/C=C/c2ccc(C(F)(F)F)cc2)c(C(=O)O)c1O , give its reported MIC.
Result: 4 µg/mL

Q: For the compound CC(C)=CCc1c(OCC2CC2)cc(/C=C/c2ccc(F)cc2)c(C(=O)O)c1O , give its reported MIC.
Result: 2 µg/mL

Q: For the compound CCn1cc(C(=O)O)c(=O)c2cc(F)c(N3CCNCC3)cc21 [NORFLOXACIN] , give its reported MIC.
Result: 1 µg/mL

Q: For the compound CC(C)=CCc1c(OC2CCCC2)cc(/C=C/c2ccc(F)cc2)c(C(=O)O)c1O , give its reported MIC.
Result: 4 µg/mL

Q: For the compound CCOc1cc(/C=C/c2ccc(C(F)(F)F)cc2)c(C(=O)O)c(O)c1CC=C(C)C , give its reported MIC.
Result: 2 µg/mL

Q: For the compound CC(C)=CCc1c(OC2CCCCCC2)cc(/C=C/c2ccc(C(F)(F)F)cc2)c(C(=O)O)c1O , give its reported MIC.
Result: 4 µg/mL

Q: For the compound CC(C)=CCc1c(OCCCCF)cc(/C=C/c2ccc(F)cc2)c(C(=O)O)c1O , give its reported MIC.
Result: 4 µg/mL

Q: For the compound CCOc1cc(/C=C/c2ccc(F)cc2)c(C(=O)O)c(O)c1CC=C(C)C , give its reported MIC.
Result: 4 µg/mL

----------
# measurementProtocol: Cytotoxicity against mouse RAW264.7 cells assessed as cell viability at 10 ug/ml measured after 24 hrs by MTT assay
# Assay type: cell-based
# condition: RAW264.7 cells, at 10 µg/mL, read-out: Activity
readoutLabel: viability at 24 h, 10 ug/ml

Q: For the molecule CC(C)=CCc1c(OCCF)cc(/C=C/c2ccc(F)cc2)c(C(=O)O)c1O , give its reported viability at 24 h, 10 ug/ml.
Result: > 60%

Q: For the molecule CC(C)=CCc1c(OC2CCOCC2)cc(/C=C/c2ccc(F)cc2)c(C(=O)O)c1O , give its reported viability at 24 h, 10 ug/ml.
Result: > 60%

----------
Kindly state MIC for each of the entries shown.
# System: Staphylococcus aureus
# measurementProtocol: Antibacterial activity against methicillin resistant Staphylococcus aureus ATCC49025 assessed as reduction in microbial growth after 16 to 18 hrs by microbroth dilution method
# Format: functional
# condition: time 16-18 hrs
Numbers only; they are read as mg/L.

Q: For Staphylococcus aureus, give MIC of the listed molecule: CC(C)=CCc1c(OC2CCCCC2)cc(/C=C/c2ccc(C(F)(F)F)cc2)c(C(=O)O)c1O
Result: 4

Q: For Staphylococcus aureus, give MIC of the listed molecule: CCC(CC)Oc1cc(/C=C/c2ccc(F)cc2)c(C(=O)O)c(O)c1CC=C(C)C
Result: 2

Q: For Staphylococcus aureus, give MIC of the listed molecule: CC(C)=CCc1c(OCC(F)F)cc(/C=C/c2ccc(C(F)(F)F)cc2)c(C(=O)O)c1O
Result: 2

Q: For Staphylococcus aureus, give MIC of the listed molecule: CC(C)=CCc1c(OC2CCOCC2)cc(/C=C/c2ccc(F)cc2)c(C(=O)O)c1O
Result: 16

Q: For Staphylococcus aureus, give MIC of the listed molecule: CC(C)=CCc1c(OCCCC(F)(F)F)cc(/C=C/c2ccc(C(F)(F)F)cc2)c(C(=O)O)c1O
Result: 4

Q: For Staphylococcus aureus, give MIC of the listed molecule: CC(C)=CCc1c(OCC(F)(F)F)cc(/C=C/c2ccc(F)cc2)c(C(=O)O)c1O
Result: 4

Q: For Staphylococcus aureus, give MIC of the listed molecule: CC(C)=CCc1c(OC2CCCCCC2)cc(/C=C/c2ccc(F)cc2)c(C(=O)O)c1O
Result: 2

Q: For Staphylococcus aureus, give MIC of the listed molecule: CC(C)=CCc1c(OC(C)C)cc(/C=C/c2ccc(C(F)(F)F)cc2)c(C(=O)O)c1O
Result: 2

Q: For Staphylococcus aureus, give MIC of the listed molecule: CC(C)=CCc1c(OCC(F)F)cc(/C=C/c2ccc(F)cc2)c(C(=O)O)c1O
Result: 4

----------
# Tested on: Staphylococcus aureus
# measurementProtocol: Antibacterial activity against methicillin resistant Staphylococcus aureus ATCC49025 assessed as reduction in microbial growth after 16 to 18 hrs by microbroth dilution method
# Type: functional
# condition: time 16-18 hrs
Kindly state MIC for each of the entries shown.
Numbers only; they are read as µg/mL.

Q: For the compound CC(C)=CCc1c(OCCC(F)(F)F)cc(/C=C/c2ccc(F)cc2)c(C(=O)O)c1O , give its reported MIC.
Result: 4

Q: For the compound CC(C)=CCc1c(OCCCC(F)(F)F)cc(/C=C/c2ccc(F)cc2)c(C(=O)O)c1O , give its reported MIC.
Result: 4

Q: For the compound CCCC(CC)Oc1cc(/C=C/c2ccc(C(F)(F)F)cc2)c(C(=O)O)c(O)c1CC=C(C)C (centres undefined) , give its reported MIC.
Result: 8

Q: For the compound CC(C)=CCc1c(OCC2CC2)cc(/C=C/c2ccc(C(F)(F)F)cc2)c(C(=O)O)c1O , give its reported MIC.
Result: 2

Q: For the compound CC(C)=CCc1c(OCCF)cc(/C=C/c2ccc(C(F)(F)F)cc2)c(C(=O)O)c1O , give its reported MIC.
Result: 8

Q: For the compound CC(C)=CCc1c(OC2CCCC2)cc(/C=C/c2ccc(C(F)(F)F)cc2)c(C(=O)O)c1O , give its reported MIC.
Result: 2

Q: For the compound CC(C)=CCc1c(OCc2ccccc2)cc(/C=C/c2ccc(C(F)(F)F)cc2)c(C(=O)O)c1O , give its reported MIC.
Result: 4

Q: For the compound CC(C)=CCc1c(OC2CCC2)cc(/C=C/c2ccc(F)cc2)c(C(=O)O)c1O , give its reported MIC.
Result: 2
